Numbers sourced from ChEMBL document CHEMBL3627637.

- ASSAY_SYSTEM: UniProt P06935
- Sequence (P06935 whole entry): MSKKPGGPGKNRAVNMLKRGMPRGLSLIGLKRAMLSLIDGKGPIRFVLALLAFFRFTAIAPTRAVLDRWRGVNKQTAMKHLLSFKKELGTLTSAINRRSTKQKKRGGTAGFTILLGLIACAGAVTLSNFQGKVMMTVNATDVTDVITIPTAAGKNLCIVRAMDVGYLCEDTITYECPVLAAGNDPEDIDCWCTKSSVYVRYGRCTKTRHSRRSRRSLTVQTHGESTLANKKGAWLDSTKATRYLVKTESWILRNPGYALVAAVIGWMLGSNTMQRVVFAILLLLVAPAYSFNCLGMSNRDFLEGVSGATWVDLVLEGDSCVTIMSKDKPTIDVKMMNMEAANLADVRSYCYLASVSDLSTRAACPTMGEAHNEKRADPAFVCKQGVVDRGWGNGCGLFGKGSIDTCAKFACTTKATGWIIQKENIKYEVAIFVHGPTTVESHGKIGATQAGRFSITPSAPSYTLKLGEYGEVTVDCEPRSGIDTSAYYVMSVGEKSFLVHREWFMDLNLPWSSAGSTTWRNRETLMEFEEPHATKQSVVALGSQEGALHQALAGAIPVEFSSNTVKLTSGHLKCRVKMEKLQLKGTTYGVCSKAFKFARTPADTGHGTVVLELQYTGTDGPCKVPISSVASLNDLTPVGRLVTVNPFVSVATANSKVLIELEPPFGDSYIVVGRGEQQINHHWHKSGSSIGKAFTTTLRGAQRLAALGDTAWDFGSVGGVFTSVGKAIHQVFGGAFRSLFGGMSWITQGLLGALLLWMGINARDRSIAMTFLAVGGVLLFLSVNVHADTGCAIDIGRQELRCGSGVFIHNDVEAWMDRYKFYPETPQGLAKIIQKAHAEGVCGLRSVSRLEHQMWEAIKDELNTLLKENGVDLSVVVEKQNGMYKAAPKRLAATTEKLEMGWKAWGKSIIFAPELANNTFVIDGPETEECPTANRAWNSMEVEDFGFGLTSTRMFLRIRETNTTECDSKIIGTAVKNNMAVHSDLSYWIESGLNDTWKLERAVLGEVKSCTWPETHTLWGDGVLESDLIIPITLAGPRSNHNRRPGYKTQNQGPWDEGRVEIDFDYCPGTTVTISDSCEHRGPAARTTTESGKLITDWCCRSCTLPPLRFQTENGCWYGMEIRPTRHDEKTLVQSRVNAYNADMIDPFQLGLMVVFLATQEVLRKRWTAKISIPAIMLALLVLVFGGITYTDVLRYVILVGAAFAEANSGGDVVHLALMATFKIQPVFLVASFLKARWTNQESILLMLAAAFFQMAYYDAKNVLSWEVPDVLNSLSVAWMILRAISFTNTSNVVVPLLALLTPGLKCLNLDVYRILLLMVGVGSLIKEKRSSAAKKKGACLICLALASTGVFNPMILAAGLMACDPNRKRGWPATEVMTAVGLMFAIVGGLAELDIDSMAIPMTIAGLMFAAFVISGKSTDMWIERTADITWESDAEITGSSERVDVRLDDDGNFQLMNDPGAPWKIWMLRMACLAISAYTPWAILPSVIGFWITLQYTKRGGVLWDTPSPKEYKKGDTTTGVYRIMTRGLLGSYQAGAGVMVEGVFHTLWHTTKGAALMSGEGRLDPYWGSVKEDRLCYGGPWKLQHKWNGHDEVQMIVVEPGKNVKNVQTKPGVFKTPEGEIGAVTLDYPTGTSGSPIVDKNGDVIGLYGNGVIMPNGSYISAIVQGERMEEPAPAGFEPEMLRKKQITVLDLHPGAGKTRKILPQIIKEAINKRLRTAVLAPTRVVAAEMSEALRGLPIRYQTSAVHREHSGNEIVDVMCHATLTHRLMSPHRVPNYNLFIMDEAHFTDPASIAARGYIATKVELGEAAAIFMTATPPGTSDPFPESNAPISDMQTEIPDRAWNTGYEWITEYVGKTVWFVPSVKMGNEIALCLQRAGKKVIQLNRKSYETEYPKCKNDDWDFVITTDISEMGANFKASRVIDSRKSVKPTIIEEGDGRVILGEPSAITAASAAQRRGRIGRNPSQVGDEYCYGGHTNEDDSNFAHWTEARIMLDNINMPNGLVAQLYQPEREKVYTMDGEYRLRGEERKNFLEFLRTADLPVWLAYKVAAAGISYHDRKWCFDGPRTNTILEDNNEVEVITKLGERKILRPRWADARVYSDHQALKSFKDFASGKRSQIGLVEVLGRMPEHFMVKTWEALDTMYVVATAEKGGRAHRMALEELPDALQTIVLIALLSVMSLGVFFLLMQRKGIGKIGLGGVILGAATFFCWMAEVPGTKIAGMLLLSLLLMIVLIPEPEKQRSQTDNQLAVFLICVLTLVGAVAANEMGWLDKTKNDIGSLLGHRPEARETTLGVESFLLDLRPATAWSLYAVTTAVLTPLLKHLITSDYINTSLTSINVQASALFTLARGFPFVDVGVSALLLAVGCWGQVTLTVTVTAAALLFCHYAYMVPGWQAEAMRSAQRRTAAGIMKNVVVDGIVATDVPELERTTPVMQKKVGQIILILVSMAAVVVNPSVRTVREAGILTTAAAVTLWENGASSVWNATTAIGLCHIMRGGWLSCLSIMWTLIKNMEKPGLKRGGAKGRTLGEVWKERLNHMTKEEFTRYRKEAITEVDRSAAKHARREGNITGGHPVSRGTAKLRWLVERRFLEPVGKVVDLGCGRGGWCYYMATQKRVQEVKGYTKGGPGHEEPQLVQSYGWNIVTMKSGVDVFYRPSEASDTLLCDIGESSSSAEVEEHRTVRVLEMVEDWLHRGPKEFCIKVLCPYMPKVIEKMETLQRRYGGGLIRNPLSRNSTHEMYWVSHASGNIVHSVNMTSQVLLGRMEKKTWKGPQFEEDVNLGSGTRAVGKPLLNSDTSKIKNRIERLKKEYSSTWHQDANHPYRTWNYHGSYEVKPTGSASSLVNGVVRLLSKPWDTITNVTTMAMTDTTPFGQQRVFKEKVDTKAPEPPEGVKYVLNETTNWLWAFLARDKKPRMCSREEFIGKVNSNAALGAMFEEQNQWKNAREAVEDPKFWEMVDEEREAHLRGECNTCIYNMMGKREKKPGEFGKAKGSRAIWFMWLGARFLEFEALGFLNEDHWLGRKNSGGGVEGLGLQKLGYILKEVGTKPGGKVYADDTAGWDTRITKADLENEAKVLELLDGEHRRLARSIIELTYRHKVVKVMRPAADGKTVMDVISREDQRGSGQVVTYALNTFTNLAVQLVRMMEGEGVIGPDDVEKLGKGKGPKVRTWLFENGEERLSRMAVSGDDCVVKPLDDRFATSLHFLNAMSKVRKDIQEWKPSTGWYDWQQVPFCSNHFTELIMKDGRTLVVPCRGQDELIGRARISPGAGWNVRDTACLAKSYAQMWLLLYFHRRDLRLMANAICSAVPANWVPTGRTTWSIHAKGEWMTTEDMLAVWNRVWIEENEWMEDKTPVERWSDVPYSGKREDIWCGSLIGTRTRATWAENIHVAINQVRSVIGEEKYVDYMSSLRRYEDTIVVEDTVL
- EXPERIMENT: Inhibition of West Nile virus NS2B-NS3 protease at 50 uM preincubated with protein for 15 mins followed by Abz-Gly-Leu-Lys-Arg-Gly-Gly-3-(NO2)-Tyr substrate addition measured by continuous fluorometric analysis
Non-standard residues stand in square brackets, D forms with d. Residues, ends and D or L forms follow the SMILES beside them. *: point of attachment. Phe(4-CH2NH2) = NCc1ccc(C[C@H](N)C(=O)O)cc1; Phe(3-CN) = N#Cc1cccc(C[C@H](N)C(=O)O)c1; Phe(4-NH2) = Nc1ccc(C[C@H](N)C(=O)O)cc1; Hydrocinnamoyl = O=C(CCc1ccccc1)*; 4Pal = N[C@@H](Cc1ccncc1)C(=O)O; Phg = N[C@H](C(=O)O)c1ccccc1; Bz = O=C(c1ccccc1)*
// FALSE strictly below 70% in inhibition; TRUE otherwise

COMPOUND	CLASSIFICATION
N#Cc1cccc(C[C@H](NC(=O)c2ccccc2)C(=O)N[C@@H](CCCCN)C(=O)N[C@H](C(N)=O)c2ccccc2)c1 (Bz-[Phe(3-CN)]-Lys-[Phg]-NH2)	FALSE
CC(=N)Nc1ccc(C[C@H](NC(=O)c2ccccc2)C(=O)N[C@@H](CCCCN)C(=O)N[C@H](C(N)=O)c2ccccc2)cc1	FALSE
CC(=O)Nc1ccc(C[C@H](NC(=O)c2ccccc2)C(=O)N[C@@H](CCCCN)C(=O)N[C@H](C(N)=O)c2ccccc2)cc1 (Bz-[Phe(4-NH2)](Ac)-Lys-[Phg]-NH2)	TRUE
NCCCC[C@H](NC(=O)[C@H](Cc1ccncc1)NC(=O)c1ccccc1)C(=O)N[C@H](C(N)=O)c1ccccc1 (Bz-[4Pal]-Lys-[Phg]-NH2)	FALSE
N=C(N)c1ccc(C[C@H](NC(=O)c2ccccc2)C(=O)N[C@@H](CCCCN)C(=O)N[C@H](C(N)=O)c2ccccc2)cc1	FALSE
N=C(N)c1cccc(C[C@H](NC(=O)c2ccccc2)C(=O)N[C@@H](CCCCN)C(=O)N[C@H](C(N)=O)c2ccccc2)c1	FALSE
N=C(N)NCCC[C@H](NC(=O)CCc1ccccc1)C(=O)N[C@@H](CCCCN)C(=O)N[C@H](C(N)=O)c1ccccc1 (Hydrocinnamoyl-Arg-Lys-[Phg]-NH2)	FALSE
NCCCC[C@H](NC(=O)[C@H](Cc1cccc(N)c1)NC(=O)c1ccccc1)C(=O)N[C@H](C(N)=O)c1ccccc1	FALSE
N=C(N)c1cccc(C[C@H](NC(=O)CCc2ccccc2)C(=O)N[C@@H](CCCCN)C(=O)N[C@H](C(N)=O)c2ccccc2)c1	FALSE
N=C(N)Nc1cccc(C[C@H](NC(=O)c2ccccc2)C(=O)N[C@@H](CCCCN)C(=O)N[C@H](C(N)=O)c2ccccc2)c1	TRUE
NCCCC[C@H](NC(=O)[C@H](Cc1ccc(CN)cc1)NC(=O)c1ccccc1)C(=O)N[C@H](C(N)=O)c1ccccc1 (Bz-[Phe(4-CH2NH2)]-Lys-[Phg]-NH2)	TRUE
